Taken from ChEMBL document CHEMBL1773071.

Tested on: HOS
Assay: Cytotoxicity against human HOS cells assessed as ATP level after 48 hrs by luciferase reporter assay
Format: cell-based

Smiles Notation | System Under Test | CC50 (µM)
O=C1c2c(c3n(c(=O)c2O)CCCC3)C(=O)N1Cc1ccc(F)c(Cl)c1 | HOS | 291

----------
Recorded IC50 for the following compounds
Biological target: Human immunodeficiency virus type 1 integrase (Human immunodeficiency virus 1)
Sequence (Q7ZJM1 whole entry): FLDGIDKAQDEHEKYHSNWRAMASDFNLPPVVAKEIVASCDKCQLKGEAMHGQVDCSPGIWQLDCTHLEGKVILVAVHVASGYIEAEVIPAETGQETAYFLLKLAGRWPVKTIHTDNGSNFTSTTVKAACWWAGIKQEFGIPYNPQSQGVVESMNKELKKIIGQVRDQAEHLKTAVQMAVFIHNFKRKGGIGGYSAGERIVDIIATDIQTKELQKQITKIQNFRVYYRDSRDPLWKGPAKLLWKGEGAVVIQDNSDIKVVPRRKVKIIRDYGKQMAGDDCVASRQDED
Assay: Inhibition of HIV1 recombinant integrase strand transfer activity expressed in Escherichia coli after 30 mins using [32P]-labeled oligonucleotide as a substrate by densitometric analysis
Experimental Readout: IC50 (µM)

Smiles Notation | Experimental Readout | Units Label | Limit Qualifier | Recorded Value
O=C1c2c(c3n(c(=O)c2O)CCCCC3)C(=O)N1Cc1cccc(Cl)c1F | IC50 | µM | = | 9.2
O=C1c2c(c3n(c(=O)c2O)CCCC3)C(=O)N1Cc1ccc(F)c(Cl)c1 | IC50 | µM | = | 9.1
O=C1c2c(c3n(c(=O)c2O)CCCCC3)C(=O)N1Cc1ccc(F)c(Cl)c1 | IC50 | µM | = | 6
O=C1c2c(c3n(c(=O)c2O)CCCCC3)C(=O)N1Cc1cccc2ccccc12 | IC50 | µM | = | 90.5
O=C1c2ccc(O)c(O)c2C(=O)N1Cc1ccc(F)cc1 | IC50 | µM | = | 5.3
O=C1c2ccc(O)c(O)c2C(=O)N1Cc1ccc(F)c(F)c1 | IC50 | µM | = | 0.14
O=C1c2ccc(O)c(O)c2C(=O)N1Cc1cccc(Cl)c1F | IC50 | µM | = | 1.7
O=C1c2c(c3n(c(=O)c2O)CCCCC3)C(=O)N1Cc1ccccc1 | IC50 | µM | > | 111
O=C1c2c(c3n(c(=O)c2O)CCCCC3)C(=O)N1Cc1ccc(F)c(F)c1 | IC50 | µM | = | 6.01
O=C1c2c(c3n(c(=O)c2O)CCCCCC3)C(=O)N1Cc1ccc(F)c(Cl)c1 | IC50 | µM | = | 5.4
O=C1c2c(c3n(c(=O)c2O)CCC3)C(=O)N1Cc1ccc(F)c(Cl)c1 | IC50 | µM | = | 10.9
O=C1c2c(c3n(c(=O)c2O)CCCCC3)C(=O)N1Cc1ccc(F)cc1 | IC50 | µM | = | 10.4
